# test: Cmax in Sprague-Dawley rat at 50 mg/kg, po measured for 5 to 1440 mins by LC-MS/MS analysis
# Type: ADME, organism-based
# condition.summary: in vivo, time 5-1440 min
measurement.label: Cmax (ng/mL)
One number for each entry, in ng/mL.

Input: Specify measured Cmax for CC1=C(C(=O)NCc2cn(-c3ccc(C)cc3)nn2)C(c2ccc(F)cc2)C2=C(CC(C)(C)CC2=O)N1 (stereo unspecified) .
Output: 1400
